Assay: protein stability index of a GFP-peptide fusion (GPS, HEK-293T) (PSI 1-6); higher = more stable;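 further: 24-mer peptide tiles fused after GFP, lentivirally expressed, FACS-sorted into six equal bins by GFP/DsRed ratio, decoded by Illumina sequencing, PSI is the read-weighted mean bin number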
Settings: treatment: MLN4924 1 uM, 8 h; c terminus: a fixed tail appended
MEASUREMENT_LABEL: protein stability index

                          residue_codes  meas_value
 0    NKQKCVERNEVRNVFKELQIMQGL [STK32A]        2.93
 1     TPIPWLSSGEPVDYNVDIGIPLDG [MYOZ1]        4.07
 2   ALATLRVLRGLARPEHPPPAPTGQ [TMEM175]        3.09
 3   KPYAVMVFQTEQKNLFRLEMDMVV [N4BP2L1]        2.96
 4      EEGSANRRPEDQELESLSAIEAEL [CHGA]        5.45
 5   PQLVSSAREGSSEPWLPLTDGRSP [PLEKHN1]        4.58
 6    KVFIPSLFLSHVLALGLGIYIGKR [BNIP3L]         2.3
 7      AMEYAPGGTLAEFIQKRCNSLLEE [NEK8]         3.3
 8     QYEKMAEKNRKDAEDWFFSKTEEL [KRT17]        4.86
 9     LNVTNYCHLAHELRLSCMERKKVQ [DCAF4]        2.36
10    PLCNFNITESFTELARIVLLRHGM [RAB40B]        2.19
11     IFSLATEWVISTGHDKCVSWMCTR [WDFY1]        2.85
12     PWKKCCFSGDGEYIVAGSARQHAL [RBBP5]        2.36
13    FDKEWVAKQTKRMLDMKVNPIQGL [COX4I1]        2.78
14     IKYFRVDFYEAMDDYTSAIEVQPN [TTC32]         2.1
15      VRAAQLCSQHWGGMASFRFPETTF [TBX6]         2.1
16   VGVMLPHNTTEAPGPHSAKQDSYE [ZC2HC1C]        5.21
17      GVTEEQEGFADGFVKALDDLHKMN [JUNB]        4.47
18   RSLGPRAPSLRRHVLIHNTLQQLQ [SERTAD3]        3.05
19  HPCGDKNCPAHWLAQDWERCNTTC [ADAMTSL2]        3.99
20      MVDIIFHYPFLGAMGDHSKKKPGT [ISL2]        2.38
21    EQGAIPRLVQLLVRAHQDTQRRTS [CTNNB1]        3.26
22    CGQPCSQKSGLIRHQKIHSGEKPY [ZNF649]        3.21
23  LQNNCTSSITRQKKRLQELALALK [TMEM120A]        2.83
24      FWLGNEALHSLTQAGDYSMRVDLR [TNXB]        2.44
25   CLAKGTFSDVTFILDDGTISAHKP [RHOBTB2]        2.46
26     SHYTSPSENMWNTGSTYNLSSGMA [CARM1]        3.14
27  APTMLHNSSGDFSQAHSTLKLANH [TRAF3IP2]        4.18
28     DAERDGVKVPTTLAEYCVKTKAPA [CDC34]        5.02
29   LFLMDLSEGELGGPSEPGGTHPED [RHOBTB2]        4.33
30     LDRVRGGRQKYKRRPEVDPLPFPG [ESRRA]        3.92
31   VCCCELGVNPDQVEKIRKLPNTLL [ANKRD40]        2.82
32      LPAVKVFLDWLRTNPDLIIVCAQS [SMG5]        2.41
33      YLDETCTCFVRDGKTYCKRDYVRL [ISL2]        2.95
34    WIDIKQFVWYTPPTFMIAVFLPIV [STEAP1]        3.39
35     GGGGCDRYEPLPPSLPAAGEQDCC [KCNA3]        5.06
36    HTGEKPYTCHECGDSFSHSSNRIR [ZNF263]         3.4
